# test_target: RET(KD: 658-1114 G810R) (Homo sapiens, UniProt P07949, G810R)
# Construct: 658-1114; expressed in transfected cells; host or cells: 293T.165 (293T cells, generated in-house)
# Sequence (P07949 658-1114 G810R): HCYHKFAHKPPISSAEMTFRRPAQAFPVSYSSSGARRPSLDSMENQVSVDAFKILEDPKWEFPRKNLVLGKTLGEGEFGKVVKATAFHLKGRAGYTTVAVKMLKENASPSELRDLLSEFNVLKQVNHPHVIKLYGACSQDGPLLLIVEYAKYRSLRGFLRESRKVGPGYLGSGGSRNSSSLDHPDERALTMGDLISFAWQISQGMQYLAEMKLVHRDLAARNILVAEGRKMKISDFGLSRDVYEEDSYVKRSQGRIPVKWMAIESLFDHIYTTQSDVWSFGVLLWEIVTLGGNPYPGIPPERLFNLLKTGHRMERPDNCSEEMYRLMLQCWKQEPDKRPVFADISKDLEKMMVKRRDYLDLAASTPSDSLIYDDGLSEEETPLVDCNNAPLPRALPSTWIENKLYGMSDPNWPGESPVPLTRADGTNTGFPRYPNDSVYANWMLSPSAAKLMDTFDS
# protocol_notes: HiBiT-Degradation, RET G810R degradation assay (Nano-Glo HiBiT Lytic), 293T.165 cells
# Format: cell-based
recorded_endpoint: 293T.165 RET(KD: 658-1114 G810R) 6.0 hours (IP) [nM]

CCC1(C(=O)NC[C@H]2C[C@@H](F)C2)CCN(c2ccc(-c3nc(-c4cnn([C@H]5CC[C@H](N6CCN(c7ccc(NC8CCC(=O)NC8=O)cc7F)CC6)CC5)c4)cn4ncc(C#N)c34)cn2)CC1 (stereo partly drawn) [Compound 210] = ++++ (<50 nM = ++++)
N#Cc1cnn2cc(-c3cnn([C@H]4CC[C@H](N5CCN(c6ccc(NC7CCC(=O)NC7=O)cc6F)CC5)CC4)c3)nc(-c3ccc(N4CC5COCC(C4)N5Cc4ccccn4)nc3)c12 (single isomer, unassigned) [Compound 157] = ++++ (<50 nM = ++++)
N#Cc1cnn2cc(-c3cnn(C4CCN(C(=O)CC5(O)CCN(c6ccc(NC7CCC(=O)NC7=O)cc6F)CC5)CC4)c3)nc(-c3ccc(N4CCC(Oc5ccccn5)CC4)nc3)c12 (stereo not drawn) [Compound 109] = ++++ (<50 nM = ++++)

====

# test_target: RET(KD: 658-1114 G810R) (Homo sapiens, UniProt P07949, G810R)
# Construct: 658-1114; expressed in transfected cells; host or cells: 293T.165 (293T cells, generated in-house)
# protocol_notes: HiBiT-Degradation, RET G810R degradation assay (Nano-Glo HiBiT Lytic), 293T.165 cells
# Format: cell-based
recorded_endpoint: 293T.165 RET(KD: 658-1114 G810R) 6.0 hours (IP) [nM]

N#Cc1cnn2cc(-c3cnn([C@H]4CC[C@H](N5CCN(c6ccc(N[C@H]7CCC(=O)NC7=O)cc6F)CC5)CC4)c3)nc(-c3ccc(N4CC5COCC(C4)N5Cc4ccccn4)nc3)c12 (single isomer, unassigned) [Compound 155] = ++++ (<50 nM = ++++)
CCC1(C(=O)NC2CCC2)CCN(c2ccc(-c3nc(-c4cnn([C@H]5CC[C@H](N6CCC(c7ccc8c(c7)CCN8[C@@H]7CCC(=O)NC7=O)CC6)CC5)c4)cn4ncc(C#N)c34)cn2)CC1 (single isomer, unassigned) [Compound 129] = ++++ (<50 nM = ++++)
CCC1(C(=O)NC2CCOCC2)CCN(c2ccc(-c3nc(-c4cnn([C@H]5CC[C@H](N6CCC(c7ccc(N[C@@H]8CCC(=O)NC8=O)cc7F)CC6)CC5)c4)cn4ncc(C#N)c34)cn2)CC1 (stereo in doubt) [Compound 143] = ++++ (<50 nM = ++++)

====

Measured DC50, listed per entry for reference.
# test_target: RET(KD: 658-1114 G810R) (Homo sapiens, UniProt P07949, G810R)
# Construct: 658-1114; expressed in transfected cells; host or cells: 293T.165 (293T cells, generated in-house)
# protocol_notes: HiBiT-Degradation, RET G810R degradation assay (Nano-Glo HiBiT Lytic), 293T.165 cells
# Format: cell-based
# experimental_context: 6.0 hours, half-maximal degradation concentration, read-out: 293T.165 RET(KD: 658-1114 G810R) 6.0 hours (DC50)

N#Cc1cnn2cc(-c3cnn([C@H]4CC[C@H](N5CCN(c6cc(F)c(NC7CCC(=O)NC7=O)cc6F)CC5)CC4)c3)nc(-c3ccc(N4CC5COCC(C4)N5Cc4ccccn4)nc3)c12 (relative stereo) = < 50 nM
CCC1(C(=O)NC2CCC2)CCN(c2ccc(-c3nc(-c4cnn([C@H]5CC[C@H](N6CCC(c7ccc(N[C@H]8CCC(=O)NC8=O)cc7Cl)CC6)CC5)c4)cn4ncc(C#N)c34)cn2)CC1 (single isomer, unassigned) = < 50 nM
N#Cc1cnn2cc(-c3ccc(N4CCN(C(=O)CN5CCC(c6ccc(NC7CCC(=O)NC7=O)cc6)CC5)CC4)cc3)cc(-c3ccc(C4(CO)CCCCC4)nc3)c12 (centres unmarked) = < 1000 nM
CC(C)NC(=O)C1(C)CCN(c2ccc(-c3cc(-c4ccc(N5CCN(C(=O)CN6CCC(c7ccc(NC8CCC(=O)NC8=O)cc7)CC6)CC5)cc4)cn4ncc(C#N)c34)cn2)CC1 (centres unmarked) = < 50 nM

With those in mind, consider the next molecule.
**Q:** Requested field: DC50. Item: CCC1(C(=O)NC(C)(C)C)CCN(c2ccc(-c3nc(-c4cnn(C5CCN(C(=O)CC6(O)CCN(c7ccc(NC8CCC(=O)NC8=O)cc7F)CC6)CC5)c4)cn4ncc(C#N)c34)cn2)CC1 (centres unmarked)
**A:** < 50 nM

Data origin, for the record: patent US12661410B2
